molecular target: PI3K-α (Homo sapiens, UniProt P42336); assay: PI3K-alpha fluorescence polarization assay; conditions: read-out: IC50 PI3Kα
Sequence (P42336 whole entry, species assumed): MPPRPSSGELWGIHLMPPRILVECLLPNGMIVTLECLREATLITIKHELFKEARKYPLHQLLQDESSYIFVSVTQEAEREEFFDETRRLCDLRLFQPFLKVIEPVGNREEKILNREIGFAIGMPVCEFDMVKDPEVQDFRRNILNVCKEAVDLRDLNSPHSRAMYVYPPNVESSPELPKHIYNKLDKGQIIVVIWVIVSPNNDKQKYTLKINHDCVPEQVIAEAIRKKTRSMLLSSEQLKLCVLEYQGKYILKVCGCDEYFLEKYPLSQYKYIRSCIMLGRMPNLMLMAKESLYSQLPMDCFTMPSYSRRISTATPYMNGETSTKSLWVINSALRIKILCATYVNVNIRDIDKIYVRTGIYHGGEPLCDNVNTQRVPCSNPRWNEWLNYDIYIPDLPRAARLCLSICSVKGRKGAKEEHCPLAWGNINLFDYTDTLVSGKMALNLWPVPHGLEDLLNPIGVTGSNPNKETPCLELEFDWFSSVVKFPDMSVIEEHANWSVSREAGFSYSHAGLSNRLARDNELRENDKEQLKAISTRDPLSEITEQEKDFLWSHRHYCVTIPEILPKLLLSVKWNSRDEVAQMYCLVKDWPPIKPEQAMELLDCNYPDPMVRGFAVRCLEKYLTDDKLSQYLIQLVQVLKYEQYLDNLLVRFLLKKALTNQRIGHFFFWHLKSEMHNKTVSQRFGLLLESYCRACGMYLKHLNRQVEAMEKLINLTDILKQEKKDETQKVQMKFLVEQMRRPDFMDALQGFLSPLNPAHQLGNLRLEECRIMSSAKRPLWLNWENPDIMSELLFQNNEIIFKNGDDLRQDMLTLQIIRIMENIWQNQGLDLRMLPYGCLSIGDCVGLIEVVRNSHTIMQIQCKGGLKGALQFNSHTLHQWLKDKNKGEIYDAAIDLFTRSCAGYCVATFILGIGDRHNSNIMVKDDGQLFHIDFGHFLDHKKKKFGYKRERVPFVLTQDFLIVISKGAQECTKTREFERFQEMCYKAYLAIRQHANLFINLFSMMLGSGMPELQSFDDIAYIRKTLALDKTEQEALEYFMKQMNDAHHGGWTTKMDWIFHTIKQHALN
Sequence (P27986 whole entry partner, species assumed): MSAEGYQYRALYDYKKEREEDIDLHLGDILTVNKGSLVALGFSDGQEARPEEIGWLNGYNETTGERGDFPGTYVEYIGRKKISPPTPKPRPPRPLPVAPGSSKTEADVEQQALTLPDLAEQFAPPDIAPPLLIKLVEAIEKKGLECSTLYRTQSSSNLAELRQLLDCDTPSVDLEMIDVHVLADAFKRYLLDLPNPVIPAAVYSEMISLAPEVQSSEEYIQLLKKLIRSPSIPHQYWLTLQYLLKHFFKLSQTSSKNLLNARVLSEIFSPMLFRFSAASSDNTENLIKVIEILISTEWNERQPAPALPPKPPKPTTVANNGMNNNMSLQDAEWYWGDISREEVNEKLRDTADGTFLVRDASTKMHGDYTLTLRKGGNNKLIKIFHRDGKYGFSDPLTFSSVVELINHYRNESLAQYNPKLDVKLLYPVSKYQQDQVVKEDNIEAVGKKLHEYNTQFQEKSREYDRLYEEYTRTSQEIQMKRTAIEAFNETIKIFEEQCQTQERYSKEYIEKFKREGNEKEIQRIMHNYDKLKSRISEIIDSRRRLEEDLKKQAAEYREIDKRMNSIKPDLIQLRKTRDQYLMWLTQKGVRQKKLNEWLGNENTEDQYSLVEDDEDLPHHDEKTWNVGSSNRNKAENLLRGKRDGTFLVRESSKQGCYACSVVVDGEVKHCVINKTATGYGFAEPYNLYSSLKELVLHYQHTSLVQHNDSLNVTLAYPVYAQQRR
observation_type: IC50 (nM)

compound	target_or_system	measure_unit	value_observed
NCCNc1ccc(NC(=O)Nc2ccc(-c3nc(N4C5CCC4COC5)nc(N4C5CCC4COC5)n3)cc2)cc1 [Example 461]	PI3K-α (Homo sapiens, UniProt P42336)	nM	482

I: COCCNC(=O)c1ccc(NC(=O)Nc2ccc(-c3nc(N4CCOCC4)nc(N4CCN(C(=O)N(C)C)CC4)n3)cc2)cc1 [Example 647]
II: COCCOc1nc(-c2ccc(NC(=O)Nc3ccncc3)cc2)nc(N2CCOCC2)n1 [Example 200]
Query block: Could you tell me which of these two has the smaller IC50 figure? First: I Second: II State the label of the item chosen.
Result block: II
(II: 14 nM, I: 24.3 nM)

====

target: UniProt P42345; assay: mTOR kinase assay (DELFIA format, purified enzyme); format: biochemical; settings: read-out: IC50 mTOR
observation_type: IC50 (nM)

Please review the entries below; each comes with its answer.
mol_smiles	IC50, nM
C[C@@H]1COCCN1c1nc(-c2ccc(NC(=O)Nc3ccc(N4CCN(C)CC4)cc3)cc2)nc(N2CCOC[C@H]2C)n1	1.1
C[C@@H]1COCCN1c1nc(-c2ccc(NC(=O)Nc3ccc(N4CCN(C5CC5)CC4)cc3)cc2)nc(N2C3CCC2COC3)n1	1.5

1: CN(C)CCNC(=O)c1ccc(NC(=O)Nc2ccc(-c3nc(N4CCCC4)nc(N4CCOCC4)n3)cc2)cc1
2: CN1CCN(c2ccc(Nc3nc(-c4ccc(NC(=O)Nc5cccnc5)cc4)nc(N4CC5CCC(C4)O5)n3)cc2)CC1
3: O=C(Nc1ccncc1)Nc1ccc(-c2nc(N3CCC(NCCO)CC3)nc(N3CC4CCC(C3)O4)n2)cc1
4: C[C@H]1COCCN1c1nc(-c2ccc(NC(=O)Nc3ccc(C(=O)O)cc3)cc2)nc(N2CCOC[C@@H]2C)n1
Query block: Please produce an ascending ranking of these compounds based on IC50. Answer format: the labels, in the requested order.
Result block: 2, 1, 4, 3

====

target: Human mTOR (FLAG-TOR) (Homo sapiens, UniProt P42345); test: mTOR kinase assay (DELFIA format, purified enzyme); type: biochemical; conditions: read-out: IC50 mTOR
Sequence (P42345 1360-2549 limits assumed): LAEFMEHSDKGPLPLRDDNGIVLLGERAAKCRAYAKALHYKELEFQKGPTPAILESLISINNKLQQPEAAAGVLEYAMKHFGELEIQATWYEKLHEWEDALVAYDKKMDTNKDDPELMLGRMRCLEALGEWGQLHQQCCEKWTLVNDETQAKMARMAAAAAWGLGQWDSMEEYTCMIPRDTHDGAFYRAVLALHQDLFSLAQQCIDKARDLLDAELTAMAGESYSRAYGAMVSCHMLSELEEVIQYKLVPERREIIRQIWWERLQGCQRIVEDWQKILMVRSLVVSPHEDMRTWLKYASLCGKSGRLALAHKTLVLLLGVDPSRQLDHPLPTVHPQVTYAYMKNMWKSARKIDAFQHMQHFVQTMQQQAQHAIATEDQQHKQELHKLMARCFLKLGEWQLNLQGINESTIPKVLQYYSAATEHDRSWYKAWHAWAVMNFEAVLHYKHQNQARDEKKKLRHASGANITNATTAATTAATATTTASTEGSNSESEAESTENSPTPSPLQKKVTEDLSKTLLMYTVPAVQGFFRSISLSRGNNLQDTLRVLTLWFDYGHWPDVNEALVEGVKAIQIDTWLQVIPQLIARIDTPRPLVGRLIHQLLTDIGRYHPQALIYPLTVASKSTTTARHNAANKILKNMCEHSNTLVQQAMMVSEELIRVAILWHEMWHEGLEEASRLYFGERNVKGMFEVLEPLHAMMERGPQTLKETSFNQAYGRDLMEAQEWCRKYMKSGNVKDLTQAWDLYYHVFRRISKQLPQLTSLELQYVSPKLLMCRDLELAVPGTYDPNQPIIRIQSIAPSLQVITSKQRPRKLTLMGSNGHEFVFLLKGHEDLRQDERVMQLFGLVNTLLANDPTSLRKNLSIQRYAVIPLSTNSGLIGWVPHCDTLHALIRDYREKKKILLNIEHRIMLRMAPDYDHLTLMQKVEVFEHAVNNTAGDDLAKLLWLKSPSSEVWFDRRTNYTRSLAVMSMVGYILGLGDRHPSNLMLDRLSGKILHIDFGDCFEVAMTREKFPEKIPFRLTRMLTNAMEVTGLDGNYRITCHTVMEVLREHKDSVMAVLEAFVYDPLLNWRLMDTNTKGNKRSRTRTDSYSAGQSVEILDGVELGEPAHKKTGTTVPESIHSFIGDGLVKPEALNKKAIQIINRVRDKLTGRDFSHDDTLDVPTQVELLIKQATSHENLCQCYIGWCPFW
observation_type: IC50 (nM)

Please review the entries below; each comes with its answer.
molecule	target_or_system	value_observed
CCCN(CCC)C1CCN(C(=O)c2ccc(NC(=O)Nc3ccc(-c4nc(N5CCOC[C@@H]5C)nc(N5CCOC[C@@H]5C)n4)cc3)cc2)CC1 [Example 624]	Human mTOR (FLAG-TOR) (Homo sapiens, UniProt P42345)	1
CN1CCCN(c2nc(-c3ccc(NC(=O)Nc4cccnc4)cc3)nc(N3CC4CCC(C3)O4)n2)C1 [Example 172]	Human mTOR (FLAG-TOR) (Homo sapiens, UniProt P42345)	8
O=C(Nc1ccncc1)Nc1ccc(-c2nc(N3CC4CCC(C3)O4)nc(N3CC4CCC(C3)O4)n2)cc1 [Example 31]	Human mTOR (FLAG-TOR) (Homo sapiens, UniProt P42345)	0.49
CCS(=O)(=O)N1CCN(c2nc(-c3ccc(NC(=O)Nc4ccc(C(=O)NCCN(C)C)cc4)cc3)nc(N3CCOCC3)n2)CC1 [Example 654]	Human mTOR (FLAG-TOR) (Homo sapiens, UniProt P42345)	8
O=C(Nc1ccc(C(=O)N2CCS(=O)(=O)CC2)cc1)Nc1ccc(-c2nc(N3CCOCC3)nc(N3C4CCC3COC4)n2)cc1 [Example 822]	Human mTOR (FLAG-TOR) (Homo sapiens, UniProt P42345)	0.335

1: O=C(NCCF)Nc1ccc(-c2nc(Nc3ccc(N4CCNCC4)cc3)nc(N3CC4CCC(C3)O4)n2)cc1 [Example 327]
2: CC(C)N1CCN(C(=O)c2ccc(NC(=O)Nc3ccc(-c4nc(N5CCOC[C@@H]5C)nc(N5CCOC[C@@H]5C)n4)cc3)cc2)CC1 [Example 614]
3: COC(=O)c1ccc(NC(=O)Nc2ccc(-c3nc(N4CCC4)nc(N4CCOCC4)n3)cc2)cc1 [Example 141]
4: CC(C)N1CCN(C(=O)c2ccc(NC(=O)Nc3ccc(-c4nc(N5CCCC5)nc(N5CCOCC5)n4)cc3)cc2)CC1 [Example 603]
5: C[C@H]1COCCN1c1nc(-c2ccc(NC(=O)Nc3ccc(C(=O)NCCN(C)C)cc3)cc2)nc(N2CCOC[C@@H]2C)n1 [Example 546]
Query block: Please produce an ascending ranking of these molecules based on IC50. Answer format: the labels, in the requested order.
Result block: 5, 2, 1, 4, 3
